Target: T1, human B7-H4 on cells (human, UniProt Q7Z7D3 25-282); also: test concentration or dose not given here
T1 sequence: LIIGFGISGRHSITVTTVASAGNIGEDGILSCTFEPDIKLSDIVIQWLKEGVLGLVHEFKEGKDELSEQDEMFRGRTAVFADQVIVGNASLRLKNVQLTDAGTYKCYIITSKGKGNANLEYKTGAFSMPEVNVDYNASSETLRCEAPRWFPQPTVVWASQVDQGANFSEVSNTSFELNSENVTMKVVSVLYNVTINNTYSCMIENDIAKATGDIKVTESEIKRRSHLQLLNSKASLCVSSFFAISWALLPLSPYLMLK
Experiment: cell-based or functional assay
Measured ZAP % Viability, SKBR3, listed per entry for reference.
Write the value in % as a bare number.

BINDER	VALUE UNITS	VAL
ZY0EO5-E07 human IgG1-TM (antibody, V domains shown, also called ZY0E05-E07; E05-E07) VH: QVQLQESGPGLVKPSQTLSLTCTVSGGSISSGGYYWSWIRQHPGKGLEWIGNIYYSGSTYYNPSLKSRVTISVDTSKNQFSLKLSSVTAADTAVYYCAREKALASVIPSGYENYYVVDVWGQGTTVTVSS VL: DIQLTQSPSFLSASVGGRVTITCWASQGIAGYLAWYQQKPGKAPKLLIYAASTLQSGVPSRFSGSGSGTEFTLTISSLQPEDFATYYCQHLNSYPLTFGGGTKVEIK	%	79

Incoming: Suppose we examine the binder ZY0EP0-C07 human IgG1-TM (antibody, V domains shown, also called ZY0EPO-C07) VH: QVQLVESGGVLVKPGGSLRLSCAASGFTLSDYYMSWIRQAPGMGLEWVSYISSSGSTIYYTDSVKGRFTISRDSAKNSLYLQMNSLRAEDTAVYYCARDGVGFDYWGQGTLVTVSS VL: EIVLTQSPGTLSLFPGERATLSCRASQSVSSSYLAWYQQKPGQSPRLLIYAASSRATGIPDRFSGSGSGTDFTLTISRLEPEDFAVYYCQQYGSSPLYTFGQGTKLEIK ; what ZAP % Viability, SKBR3 value has been reported?
Outgoing: 72

Incoming: Item: ZY0EQD-E02 human IgG1-TM (antibody, V domains shown) VH: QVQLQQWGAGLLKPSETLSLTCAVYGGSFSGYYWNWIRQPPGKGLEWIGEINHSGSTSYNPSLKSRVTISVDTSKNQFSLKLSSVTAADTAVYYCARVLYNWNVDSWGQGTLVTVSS VL: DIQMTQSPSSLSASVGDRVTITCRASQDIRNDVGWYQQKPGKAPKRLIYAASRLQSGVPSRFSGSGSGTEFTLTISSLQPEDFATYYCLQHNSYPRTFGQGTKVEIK
Outgoing: 48
